# SYSTEM UNDER TEST: T1, purified recombinant CHMP2B (UniProt Q9UQN3 1-213)
# T1 construct: CHMP2B from the vector pET-DEST42 CHMP2B; eluted as a 26 kDa monomer; Removal of tags is not described; source: E. coli Overexpress C41, inclusion bodies, purified (Ni-NTA in guanidine HCl, dialysis, SEC)
# T1 sequence (Q9UQN3 whole entry): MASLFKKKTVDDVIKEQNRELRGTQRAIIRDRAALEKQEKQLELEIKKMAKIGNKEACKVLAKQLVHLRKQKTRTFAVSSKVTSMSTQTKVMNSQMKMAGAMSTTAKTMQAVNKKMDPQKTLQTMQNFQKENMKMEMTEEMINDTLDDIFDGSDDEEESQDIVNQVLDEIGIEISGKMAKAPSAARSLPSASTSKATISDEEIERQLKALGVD
# PROCEDURE TEXT: fluorescence polarisation; FITC-peptide constant at 50 nM, CHMP2B serially diluted 1:1 from 30 μM; 50 mM Na phosphate pH 5.5 or 20 mM Na acetate pH 5.5, 0.5 mM TCEP, 0.005% Triton-X-100; 30 min at room temperature
# CONDITION INFO: both partners purified
pKd: −log10 of the molar value. No end group written: not given here. *: point of attachment. FITC = O=C1OC2(c3ccc(O)cc3Oc3cc(O)ccc32)c2ccc(NC(=S)*)cc21
Recorded pKd, one value per entry.
OUTCOME MEASURE: pKd

| BINDER | MEASURED RESULT |
| --- | --- |
| {FITC}-NEEGAPQEGILE (α-synuclein amino acids 103-114; also called a-syn peptide fragment; source: synthetic peptide (LifeTein)) [FITC-labeled a-syn peptide, amino acids 103-114 (NEEGAPQEGILE)] | 6.19 |
| {FITC}-DEEIERQLKALG (stretch of the C-terminal region (MIM) of CHMP2B; also called FITC-PDpep1.3; source: synthetic peptide (LifeTein)) [FITC-labeled PDpep1.3 peptide] | 5.74 |

This collection of values is drawn from paper PMC10115881.
